study-system: CDK9/CycT1 (Homo sapiens)
Sequence (P50750 whole entry): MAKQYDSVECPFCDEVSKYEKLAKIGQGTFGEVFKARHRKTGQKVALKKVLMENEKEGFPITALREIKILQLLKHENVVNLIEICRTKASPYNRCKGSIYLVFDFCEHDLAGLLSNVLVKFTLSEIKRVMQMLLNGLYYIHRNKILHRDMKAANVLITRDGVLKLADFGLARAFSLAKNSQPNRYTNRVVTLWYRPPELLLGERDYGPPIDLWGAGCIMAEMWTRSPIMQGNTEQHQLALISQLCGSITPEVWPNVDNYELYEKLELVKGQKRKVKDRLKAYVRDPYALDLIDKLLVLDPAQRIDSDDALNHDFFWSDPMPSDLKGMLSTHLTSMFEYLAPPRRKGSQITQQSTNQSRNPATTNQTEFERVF
Sequence (O60563 whole entry partner): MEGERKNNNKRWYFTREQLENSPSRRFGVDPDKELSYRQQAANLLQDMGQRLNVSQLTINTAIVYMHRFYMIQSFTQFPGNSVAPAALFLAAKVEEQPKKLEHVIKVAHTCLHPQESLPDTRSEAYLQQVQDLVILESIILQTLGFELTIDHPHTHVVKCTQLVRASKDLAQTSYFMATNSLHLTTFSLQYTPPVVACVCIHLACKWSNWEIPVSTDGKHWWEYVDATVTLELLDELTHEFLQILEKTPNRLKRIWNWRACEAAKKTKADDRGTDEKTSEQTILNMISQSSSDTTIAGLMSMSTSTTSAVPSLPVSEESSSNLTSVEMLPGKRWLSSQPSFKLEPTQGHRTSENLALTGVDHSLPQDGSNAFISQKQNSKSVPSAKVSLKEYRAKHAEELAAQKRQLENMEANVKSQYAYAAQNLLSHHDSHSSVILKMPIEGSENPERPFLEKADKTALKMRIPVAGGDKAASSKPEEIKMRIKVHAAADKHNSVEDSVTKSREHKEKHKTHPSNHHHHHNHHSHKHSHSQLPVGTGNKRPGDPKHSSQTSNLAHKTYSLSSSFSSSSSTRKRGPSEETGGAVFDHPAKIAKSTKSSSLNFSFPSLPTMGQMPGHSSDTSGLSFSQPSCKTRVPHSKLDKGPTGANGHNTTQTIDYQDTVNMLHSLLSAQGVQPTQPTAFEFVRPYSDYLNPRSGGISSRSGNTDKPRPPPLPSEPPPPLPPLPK
assay-info: Ligand efficiency and ligand lipophilic efficiency (DataWarrior)
condition-context: LLE=pIC50−clogP
Hi there, I'd appreciate the recorded LLE for every entry that follows.
# answer = number (no unit)

*Q* Reported LLE for NS(=O)(=O)c1cccc(Nc2nccc(-c3ccncc3)n2)c1 [Compound 5i] : what is it?
*A* 4.9754

*Q* One more compound: NS(=O)(=O)c1cccc(Nc2nccc(-c3ccc([N+](=O)[O-])cc3)n2)c1 [Compound 5g]
*A* 4.8413

*Q* Please do the same for COc1ccc(-c2ccnc(Nc3cccc(S(N)(=O)=O)c3)n2)cc1 [Compound 5c] as well.
*A* 4.0076

*Q* Another compound to look at: NS(=O)(=O)c1cccc(Nc2nccc(-c3ccccc3)n2)c1 [Compound 5a]
*A* 3.9758

Measured values drawn from paper PMC10254914 for this set.
